System: CAKI-1 renal
Assay: NCI-60 one-dose screen, 48 h (100 = growth as untreated, 0 = no growth, -100 = all killed)
Settings: 10 µM
Protocol: Growth inhibition of the CAKI-1 human tumor cell line is measured as a screen for anti-cancer activity. Cells are grown in 96 well plates and exposed to the test compound for 48 hours. Compounds are tested at a single concentration, which is 10^-5 M for most compounds. The reported endpoint is percent growth (GI% or GIPRCNT), where numbers from 0 - 100% represent growth inhibition, and numbers from -100% - 0 represent cell death. For example, a value of 40 represents 60% growth inhibition. […]
Compounds without any hit were thinned out: in the full panel of roughly 83,000, 20% have a hit.
Please use met whenever growth is not below 30%, and not met whenever it is.

Answered cases to consult:
INSERT INTO assay_data (compound, answer_label) VALUES
  ('O=S(=O)(Nc1cc(Cl)cc(Cl)c1)c1ccc(-c2cnc(C3CC3)o2)cc1', 'not met'),
  ('O=C(Nc1ccccc1)Nc1nc2ccc([N+](=O)[O-])cc2s1', 'not met'),
  ('Cc1cc(Cl)cc(NS(=O)(=O)c2ccc(-c3cnc(C4CC4)o3)cc2)c1', 'met'),
  ('COc1ccc2c(c1)c(-c1nn3c(=O)cc(-c4ccccc4)nc3s1)cn2C', 'met'),
  ('CS(=O)c1nccc(-c2c(-c3ccc(F)c(OCCc4ccc(F)cc4)c3)nc3sccn23)n1 (centres undefined)', 'met'),
  ('COc1ccc2c(C3=C(c4c[nH]c5ccccc45)C(=O)N(O)C3=O)coc2c1', 'met');

Query: Threshold query (growth >= 30%) on CC(=O)Oc1ccc(CCN2C(=O)CSC2=S)cc1
Reply: met

Query: Threshold query (growth >= 30%) on C=C1C(=O)O[C@@H]2C[C@@H](C)[C@H](OC)CC(=O)[C@](C)(OC(C)=O)C[C@H](OC(=O)/C(C)=C\C)[C@@H]12
Reply: met

###

Test system: HOP-92 NSCLC
Experiment: NCI-60 one-dose screen, 48 h
Conditions: 10 µM unless noted
Experimental: Growth inhibition of the HOP-92 human Non-Small Cell Lung tumor cell line is measured as a screen for anti-cancer activity. Cells are grown in 96 well plates and exposed to the test compound for 48 hours. Compounds are tested at a single concentration, which is 10^-5 M for most compounds. The reported endpoint is percent growth (GI% or GIPRCNT), where numbers from 0 - 100% represent growth inhibition, and numbers from -100% - 0 represent cell death. […]
About 83,000 compounds went through this panel and 20% of them were active in at least one assay; those are over-represented in the sample as a whole. Calls of active or inactive are those of the source. How the source made its calls: active means growth percent below 10; inactive means the rest.
Permitted responses: active, inactive

Answered cases to consult:
INSERT INTO assay_data (compound, answer_label) VALUES
  ('CN1C(=O)N(C)C2C1NN=c1s/c(=C\c3ccccn3)c(=O)n12 (stereo not drawn)', 'inactive'),
  ('C/C(=N\NC(=O)CSc1nc2sc3c(c2c(=O)n1-c1ccccc1)CCC(C)C3)c1ccc(Cl)cc1 (stereo not drawn)', 'active'),
  ('CN1CCN(c2ccc3c(C(N)=O)c(NC(=O)c4ccc(C(C)(C)C)cc4)sc3c2)CC1', 'inactive'),
  ('CN(c1ccc(Br)cc1)S(=O)(=O)c1ccc(-c2cnc(C3CC3)o2)cc1', 'inactive');

Query: Write down the call the test reported for this compound. Item: O=C(NCCNc1cc(-c2cn(-c3ccccc3)nc2-c2cccc(O)c2)ccn1)Nc1ccc(Cl)c(C(F)(F)F)c1
Reply: inactive

Query: Write down the call the test reported for this compound. Item: Nc1nc(-c2cccc([N+](=O)[O-])c2)c(N=Nc2ccccc2Cl)s1
Reply: inactive

Query: Write down the call the test reported for this compound. Item: CNC(=O)c1cc(N2CCc3cc(NC(=O)Nc4ccc(Cl)c(Cl)c4)ccc32)ccn1
Reply: inactive

###

growth: recorded values
system: UACC-257 melanoma; experiment: NCI-60 one-dose screen, 48 h (100 = growth as untreated, 0 = no growth, -100 = all killed); details: 10 µM
Compounds without any hit were thinned out: in the full panel of roughly 83,000, 20% have a hit.
Your answer is read as %, so omit the unit and give the number.

Query: Could you tell me which growth is on file for CCOC(=O)c1c(NCC(=O)Nc2cccc([N+](=O)[O-])c2)sc2c1CCCC2 ?
Reply: -27

Query: Could you tell me which growth is on file for N#C/C(=C\c1ccc(Cl)cc1Cl)C(N)=O ?
Reply: 109

Query: Could you tell me which growth is on file for CN1C(=O)N(C)C2Nn3c(s/c(=C\c4ccccn4)c3=O)=NC21 (stereo unspecified) ?
Reply: 96

Query: Could you tell me which growth is on file for CCNC(=O)Oc1ccc(/C(=C(/C)c2ccc(Cl)cc2)c2ccc(OCCN(C)C)cc2)cc1 ?
Reply: 81

###

growth: recorded values
system: IGROV1 ovarian; assay: NCI-60 one-dose screen, 48 h (100 = growth as untreated, 0 = no growth, -100 = all killed); details: 10 µM unless noted
Compounds without any hit were thinned out: in the full panel of roughly 83,000, 20% have a hit.
Your answer is read as %, so omit the unit and give the number.

Some molecules with recorded growth:
INSERT INTO assay_data (molecule, target_of_assay, measurement_label, observed) VALUES
  ('O=C(/C=C1\C=CN(CCCCF)c2ccccc21)n1ccc2ccccc21', 'IGROV1 ovarian', 'growth', 74.9),
  ('NS(=O)(=O)c1ccc(Nc2nc(N/N=C/c3ccc([N+](=O)[O-])cc3)nc(Nc3ccccc3)n2)cc1', 'IGROV1 ovarian', 'growth', 52.1),
  ('COc1ccc(-c2no[n+]([O-])c2Nc2ccccc2Br)cc1', 'IGROV1 ovarian', 'growth', 85.4);

Query: Request: growth, test system IGROV1 ovarian, entry CCOC(=O)c1ccc(N/C=C/C(=O)c2ccccc2)cc1
Reply: 110

Query: Request: growth, test system IGROV1 ovarian, entry CCCC(=O)NC(c1cccnc1)c1cc(C(C)=O)c2cccnc2c1O (stereo unspecified)
Reply: 36.7

###

growth: recorded values
system: SN12C renal; experiment: NCI-60 one-dose screen, 48 h (100 = growth as untreated, 0 = no growth, -100 = all killed); details: 10 µM unless noted
This is part of a sample that, as a whole, favours compounds with a hit. Of some 83,000 tested, about 20% had one in any assay.
Your answer is read as %, so omit the unit and give the number.

Some molecules with recorded growth:
INSERT INTO results (molecule, observed) VALUES
  ('CCN1C(=O)N(CC)C2SC(N/N=C/c3ccccc3)=NC21 (configuration not stated)', 34.4),
  ('O=C(CN1C(=O)S/C(=C\c2ccccc2)C1=O)Nc1ccc(C(=O)/C=C/c2cc3ccccc3nc2Cl)cc1', 91.2),
  ('CCc1ccc(NC(=O)N[C@@H](Cc2cc(F)cc(F)c2)C(=O)N[C@@H]2C(=O)N3CCC[C@H]3C(=O)N3CCO[C@H](C)[C@H]3C(=O)N[C@@H](CO)C(=O)N3C[C@H](C)C[C@H]3C(=O)O[C@H]2C)c(F)c1', 22.5),
  ('O=C(NNc1nc2cc(F)cc(F)c2n2cccc12)c1ncccn1', 15.7);

Moving on to another molecule below.
Query: Request: growth, test system SN12C renal, entry CS(=O)(=O)c1ccc(-c2nn(-c3ccccc3)cc2/C=N/NC(=O)c2ccncc2)cc1
Reply: 98.6

###

system: SN12C renal; assay: NCI-60 one-dose screen, 48 h; settings: 10 µM unless noted
Compounds without any hit were thinned out: in the full panel of roughly 83,000, 20% have a hit. The source made the active and inactive calls. How the source made its calls: active means growth percent below 10; inactive means the rest.
Permitted responses: active, inactive

Answered cases to consult:
INSERT INTO assay_data (compound, answer_label) VALUES
  ('O=C1C[C@@H](c2ccccc2)Oc2c(Cc3ccccc3O)c(O)c(Cc3cc(Cc4cc(Cc5ccccc5O)ccc4O)ccc3O)c(O)c21', 'inactive'),
  ('Cc1occc1-c1nc2s/c(=C\c3cn(-c4ccccc4)nc3-c3ccccc3)c(=O)n2n1', 'inactive'),
  ('CC(C)(C)n1nnnc1C(Nc1nccs1)c1cc2cccc3ccc4cccc1c4c32 (stereo unspecified)', 'inactive'),
  ('COc1ccc2c(ccn2C(=O)N2c3ccccc3Sc3ccccc32)c1', 'inactive'),
  ('C/C(=N\NC(=S)Nc1ccc(Br)cc1)c1cc2ccccc2oc1=O', 'inactive');

Query: Write down the call the test reported for this compound. Item: O=S(=O)(Nc1ccc(C2CC2)cc1)c1ccc(-c2cnc(C3CC3)o2)cc1
Reply: inactive

###

system: UACC-257 melanoma; test: NCI-60 one-dose screen, 48 h (100 = growth as untreated, 0 = no growth, -100 = all killed); details: 10 µM
The panel holds about 83,000 compounds, 20% with a hit somewhere; the sample as a whole holds those more often.
growth: recorded values
Your answer is read as %, so omit the unit and give the number.

INSERT INTO measurements (molecular_string, observed) VALUES
  ('Oc1ccc(CSc2nnc(-c3ccccc3)n2-c2ccccc2)c2cccnc12', 3.18),
  ('COc1ccc2oc3c4[nH]c5ccccc5c4c4c(c3c2c1)C(=O)N(O)C4=O', 106),
  ('O=C1/C(=C/c2ccc([N+](=O)[O-])cc2)SC(=Nc2ccccc2)N1Nc1ccccc1', 89.7);

Query: Could you tell me which growth is on file for c1ccc(-c2n(Cc3ccc4ccccc4c3)c3c4ccccc4c4ccccc4c3[n+]2Cc2ccc3ccccc3c2)cc1 ?
Reply: -38.2

Query: Could you tell me which growth is on file for COc1ccc(C(=O)c2c(N)c(C#N)cn2-c2cccc(OC)c2)cc1 ?
Reply: 47.5
